Listed here are compounds together with their documented activation at 50 µM.
biological target: human PPARα (Homo sapiens, UniProt Q07869); construct: borders undisclosed; test: Cell-based Luciferase Assay, human PPARα agonist activity (Indigo Biosciences hPPARα IB00111); details: read-out: % PPAR-alpha AGONISM, % at 50 μm
Express your answer in %, writing the number without its unit.

Solved cases (2 shown):
> print(dat)
                                smiles.text  value.observed
1  O=C(O)c1cc(F)cc(NCc2ccc(-c3ccc(C(F)(F)F)cc3)cc2O)c1            46.8
2  O=C(O)c1cccc(NCc2ccc(-c3ccc(F)cc3)cc2)c1            55.1

Per the record, `O=C(O)c1cc(F)cc(NCc2ccc(-c3ccccc3)cc2)c1` has activation at 50 µM of 95.2

Record `O=C(O)c1cccc(NCc2cn(-c3ccc(C(F)(F)F)cc3)nn2)c1` , field activation at 50 µM: 58.5

Just so you know, measured activation at 50 µM for `O=C(O)c1cc(F)cc(NCc2ccc(-c3ccc(C4CCCC4)cc3)cc2)c1` came out at 48

Per the record, `O=C(O)c1cc(F)cc(NCc2cnc(-c3ccc(C(F)(F)F)cc3)s2)c1` has activation at 50 µM of 74.9

Just so you know, measured activation at 50 µM for `Cc1ccc(-c2ccc(CNc3cc(F)cc(C(=O)O)c3)cc2)cc1` came out at 98.9

The measured activation at 50 µM associated with `O=C(O)c1cc(NCc2ccc(-c3ccc(C(F)(F)F)cc3)cc2)ccc1F` reads 54.4

Record `O=C(O)c1cc(F)cc(NCc2cn(-c3ccc(C(F)(F)F)cc3)nn2)c1` , field activation at 50 µM: 91

---

As shown below, each of these compounds has a reported activation at 5 µM value.
Molecular target: human PPARα (Homo sapiens, UniProt Q07869)
Construct: borders undisclosed
Sequence (Q07869 1-468): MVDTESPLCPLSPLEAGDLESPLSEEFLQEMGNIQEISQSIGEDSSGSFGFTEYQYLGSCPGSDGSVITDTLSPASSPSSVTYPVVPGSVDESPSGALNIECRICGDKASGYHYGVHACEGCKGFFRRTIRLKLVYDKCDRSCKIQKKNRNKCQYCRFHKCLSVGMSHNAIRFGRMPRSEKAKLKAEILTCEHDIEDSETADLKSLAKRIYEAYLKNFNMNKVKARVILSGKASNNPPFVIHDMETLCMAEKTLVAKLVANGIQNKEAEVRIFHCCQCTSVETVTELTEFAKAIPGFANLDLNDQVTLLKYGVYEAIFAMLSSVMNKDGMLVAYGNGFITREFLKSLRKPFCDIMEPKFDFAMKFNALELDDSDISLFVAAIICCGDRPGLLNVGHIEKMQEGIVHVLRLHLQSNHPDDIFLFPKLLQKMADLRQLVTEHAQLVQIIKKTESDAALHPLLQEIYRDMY
Assay: Cell-based Luciferase Assay, human PPARα agonist activity (Indigo Biosciences hPPARα IB00111)
Settings: read-out: % PPAR-alpha AGONISM, % at 5 μm
Note to self: number, then unit, no commentary.

Solved entries:
> print(dat)
                                smiles.text  value.observed
1  O=C(O)c1cc(F)cc(NCc2ccc(-c3ccc(Cl)cc3)cc2)c1             80%
2  O=C(O)c1cc(NCc2ccc(-c3ccc(C(F)(F)F)cc3)cc2)ccc1F           92.5%
3  Cc1cc(CNc2cc(F)cc(C(=O)O)c2)ccc1-c1ccc(C(F)(F)F)cc1C           46.3%

The value of activation at 5 µM recorded for `O=C(O)c1cc(F)cc(NCc2cc(Cl)c(-c3ccc(C(F)(F)F)cc3)c(Cl)c2)c1` when tested on human PPARα (Homo sapiens, UniProt Q07869) reads 37.2%

Hey, human PPARα (Homo sapiens, UniProt Q07869) data for `O=C(O)c1cc(F)cc(NCc2ccc(-c3ccc(C4CCCC4)cc3)cc2)c1` : activation at 5 µM came out at 58.5%

Let me check: `O=C(O)c1ccc(F)c(NCc2ccc(-c3ccc(C(F)(F)F)cc3)cc2)c1` , system human PPARα (Homo sapiens, UniProt Q07869), measured activation at 5 µM is 98%

The compound `O=C(O)c1cc(F)cc(NCc2cn(-c3ccc(F)cc3)nn2)c1` on human PPARα (Homo sapiens, UniProt Q07869): activation at 5 µM was 19.1%

Log: human PPARα (Homo sapiens, UniProt Q07869), compound `O=C(O)c1cccc(NCc2ccc(-c3ccc(C(F)(F)F)cc3)cc2)c1` , activation at 5 µM = 103%

# value of activation at 5 µM, human PPARα (Homo sapiens, UniProt Q07869), item `O=C(O)c1cc(F)cc(NCc2ccc(-c3ccc(C(F)(F)F)cc3)cc2O)c1` = 49.6%

activation at 5 µM value, target or system human PPARα (Homo sapiens, UniProt Q07869), for `O=C(O)c1cccc(NCc2cn(-c3ccc(F)cc3)nn2)c1` : 21.5%
